Please respond with reported pIC50 for every item in the list.
# TARGET ENTITY: human SPNS2 (Homo sapiens, UniProt Q8IVW8)
# Sequence (Q8IVW8 whole entry): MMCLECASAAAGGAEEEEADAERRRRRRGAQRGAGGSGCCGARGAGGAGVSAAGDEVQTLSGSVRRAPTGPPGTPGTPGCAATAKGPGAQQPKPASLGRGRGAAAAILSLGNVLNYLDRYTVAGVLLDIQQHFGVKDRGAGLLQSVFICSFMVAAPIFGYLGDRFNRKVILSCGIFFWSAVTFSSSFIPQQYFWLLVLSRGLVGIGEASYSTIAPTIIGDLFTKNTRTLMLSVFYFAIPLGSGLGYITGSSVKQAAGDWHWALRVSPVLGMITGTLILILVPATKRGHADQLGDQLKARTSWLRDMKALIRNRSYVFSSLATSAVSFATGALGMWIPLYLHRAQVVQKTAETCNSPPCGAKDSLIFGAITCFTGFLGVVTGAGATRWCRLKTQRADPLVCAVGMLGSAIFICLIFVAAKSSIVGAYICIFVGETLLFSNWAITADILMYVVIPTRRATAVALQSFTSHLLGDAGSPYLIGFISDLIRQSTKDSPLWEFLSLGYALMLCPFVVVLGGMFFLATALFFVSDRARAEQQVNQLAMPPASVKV
# EXPERIMENTAL PROTOCOL: S1P transporter assay: growth of S. cerevisiae strain with forced expression of a mammalian SphK and human SPNS2
# REPORTED CONDITIONS: in vitro inhibition of SPNS2; growth of S. cerevisiae strain expressing mammalian SphK and human SPNS2; compounds as their pharmaceutical salts
pIC50: −log10 of the molar value. Structures can show the parent of a compound that is named as a salt.

N=C(N)N1CC[C@@H](c2nc(-c3ccc(Nc4cc(Br)ccc4Br)nc3)no2)C1 [Compound 15f, hydrochloride]: < 5.70
CCCCCCCCCCc1ccc(-c2noc([C@@H]3CCCNC3)n2)cc1 [Compound 5h, 2,2,2-trifluoroacetate]: < 5.70
N=C(N)N1CCC[C@@H](c2nc(-c3ccc(OCc4ccc(C(F)(F)F)cc4)c(C(F)(F)F)c3)no2)C1 [Compound 23h, hydrochloride]: < 5.70
C/C(=N\OCc1ccc2c(c1)C(C)(C)CCC2(C)C)c1ccc(-c2noc([C@@H]3CCN(C(=N)N)C3)n2)cc1 [Compound 40h, hydrochloride]: ≥ 5.70
c1cc(N2CCCCC2)ncc1-c1noc([C@@H]2CCNC2)n1 [Compound 13a, hydrochloride]: < 5.70

Lab note: each compound below needs its pIC50 filled in.
1. CCCCCCCCCCc1ccc(-c2noc([C@@H]3CCCN(C(=N)N)C3)n2)cc1C(F)(F)F [Compound 30e, hydrochloride]
2. CCCCCCCCCCc1ccc(-c2noc(CC3CNC3)n2)cc1 [Compound 5j, 2,2,2-trifluoroacetate]
3. C/C(=N\OCc1ccc(C(C)(C)C)cc1)c1ccc(-c2noc([C@@H]3CCN(C(=N)N)C3)n2)cc1 [Compound 40k, hydrochloride]
4. C/C(=N\OCc1ccc(C(C)(C)C)cc1)c1ccc(-c2noc([C@@H]3CCNC3)n2)cc1 [Compound 38k]
5. CCCCCCCCCCc1ccc(-c2noc([C@H]3CCN(C(=N)N)C3)n2)cc1 [Compound 7e]
6. N=C(N)N1CC(c2nc(-c3ccc(OCCCc4ccccc4)c(C(F)(F)F)c3)no2)C1 [Compound 23i, hydrochloride]

≥ 5.70
≥ 5.70
≥ 5.70
≥ 5.70
< 5.70
< 5.70

Go through the list and state pIC50 for each entry.
1. CCCCCCCCCCCc1ccc(-c2noc(C3CN(C(=N)N)C3)n2)cc1 [Compound 7a, hydrochloride]
2. CCCCCCCCCOc1ccc(-c2noc(C3CN(C(=N)N)C3)n2)cc1C(F)(F)F [Compound 23b, hydrochloride]
3. N=C(N)N1CC[C@@H](c2nc(-c3ccc(N4CCCCC4)nc3)no2)C1 [Compound 15a, hydrochloride]
4. CCCCCCCO/N=C(\C)c1ccc(-c2noc([C@@H]3CCN(C(=N)N)C3)n2)cc1 [Compound 40i, hydrochloride]
5. CCCCCCCCOc1ccc(-c2noc([C@@H]3CCCN(C(=N)N)C3)n2)cc1C(F)(F)F [Compound 23d, hydrochloride]
6. C/C(=N\OCc1ccc(Br)cc1)c1ccc(-c2noc([C@@H]3CCN(C(=N)N)C3)n2)cc1 [Compound 40n, hydrochloride]

< 5.70
≥ 5.70
< 5.70
≥ 5.70
< 5.70
< 5.70

Provide each entry's pIC50 from the list below.
1. CCCCCCCCCc1ccc(-c2noc([C@@H]3CCCNC3)n2)cc1C(F)(F)F [Compound 28d, hydrochloride]
2. CCCCCCCOc1ccc2cc(-c3noc([C@@H]4CCNC4)n3)ccc2c1 [Compound 5aa, hydrochloride]
3. CCCCCCCCCCOc1ccc(-c2noc([C@@H]3CCCNC3)n2)cc1C(F)(F)F [Compound 21f, hydrochloride]

< 5.70
≥ 5.70
< 5.70

====

# TARGET ENTITY: UniProt Q8IVW8
# EXPERIMENTAL PROTOCOL: S1P transporter assay: growth of S. cerevisiae strain with forced expression of a mammalian SphK and human SPNS2
# REPORTED CONDITIONS: in vitro inhibition of SPNS2; growth of S. cerevisiae strain expressing mammalian SphK and human SPNS2; compounds as their pharmaceutical salts
Structures can show the parent of a compound that is named as a salt.
For each record, write down the corresponding IC50.

// worked examples, IC50 included
CCCCCCCCCCc1ccc(-c2noc([C@@H]3CCN(C(=N)N)C3)n2)cc1 [Compound 7g]: > 2000 nM
CCCCCCCCCCCc1ccc(-c2noc([C@@H]3CCN(C(=N)N)C3)n2)cc1 [Compound 7xa, hydrochloride]: ≤ 2000 nM
CCCCCCCCCc1ccc(-c2noc([C@@H]3CCCN(C(=N)N)C3)n2)cc1 [Compound 7yb, hydrochloride]: ≤ 2000 nM
FC(F)(F)c1cc(-c2noc([C@@H]3CCCNC3)n2)ccc1OCCCc1ccccc1 [Compound 21j, hydrochloride]: > 2000 nM
C/C(=N\OCc1cc(C(F)(F)F)cc(C(F)(F)F)c1)c1ccc(-c2noc([C@@H]3CCNC3)n2)cc1 [Compound 38b, hydrochloride]: ≤ 2000 nM
CCCCCCCCCCc1ccc(-c2noc(C[C@@H]3CCNC3)n2)cc1 [Compound 5p, 2,2,2-trifluoroacetate]: ≤ 2000 nM

Okay, next one:
What value of IC50 has been recorded for this entry: C/C(=N\OCc1ccc(C(F)(F)F)cc1)c1ccc(-c2noc([C@@H]3CCN(C(=N)N)C3)n2)cc1 [Compound 40c, hydrochloride]
> 2000 nM

====

# TARGET ENTITY: human SPNS2 (Homo sapiens, UniProt Q8IVW8)
# EXPERIMENTAL PROTOCOL: S1P transporter assay: growth of S. cerevisiae strain with forced expression of a mammalian SphK and human SPNS2
# REPORTED CONDITIONS: in vitro inhibition of SPNS2; growth of S. cerevisiae strain expressing mammalian SphK and human SPNS2; compounds as their pharmaceutical salts
Where a name gives a salt, the structure may show the parent alone.
PROPERTY MEASURED: IC50

Please review the following examples before continuing.
CCCCCCCCCCCc1ccc(-c2noc(C3CN(C(=N)N)C3)n2)cc1C(F)(F)F [Compound 30c, hydrochloride]: > 2000 nM
CCCCCCCCCc1ccc(-c2noc([C@@H]3CCN(C(=N)N)C3)n2)cc1 [Compound 7xb, hydrochloride]: ≤ 2000 nM
Clc1ccccc1Nc1ccc(-c2noc([C@@H]3CCNC3)n2)cn1 [Compound 13e, hydrochloride]: > 2000 nM
CCCCCCCCCCc1ccc(-c2noc([C@H]3CCNC3)n2)cc1 [Compound 5e, 2,2,2-trifluoroacetate]: > 2000 nM
CCCCCO/N=C(\C)c1ccc(-c2noc([C@@H]3CCN(C(=N)N)C3)n2)cc1 [Compound 40l, hydrochloride]: > 2000 nM

Look at each molecule and report its IC50.
1. N=C(N)N1CC(c2nc(-c3ccc(OCc4ccc(C(F)(F)F)cc4)c(C(F)(F)F)c3)no2)C1 [Compound 23g, hydrochloride]
2. CCCCCCCCCc1ccc(-c2noc(C3CN(C(=N)N)C3)n2)cc1C(F)(F)F [Compound 30a, hydrochloride]
3. CCCCCCCCCCc1ccc(-c2noc(C3CN(C(=N)N)C3)n2)cc1C(F)(F)F [Compound 30b, hydrochloride]
4. CCCCCCCCCCc1ccc(-c2noc(C[C@@H]3CCNC3)n2)cc1C(F)(F)F [Compound 28g, hydrochloride]
5. CCCCCO/N=C(\C)c1ccc(-c2noc([C@@H]3CCNC3)n2)cc1 [Compound 38l, hydrochloride]
6. Fc1cc(Nc2ccc(-c3noc([C@@H]4CCCNC4)n3)cn2)ccc1OC(F)(F)F [Compound 13c, hydrochloride]
7. C/C(=N\OCc1ccccc1)c1ccc(-c2noc([C@@H]3CCN(C(=N)N)C3)n2)cc1 [Compound 40g, hydrochloride]
8. C/C(=N\OCc1cc(C(F)(F)F)cc(C(F)(F)F)c1)c1ccc(-c2noc([C@@H]3CCN(C(=N)N)C3)n2)cc1 [Compound 40b, hydrochloride]

1. > 2000 nM
2. ≤ 2000 nM
3. ≤ 2000 nM
4. > 2000 nM
5. > 2000 nM
6. > 2000 nM
7. > 2000 nM
8. ≤ 2000 nM

====

For each record, write down the corresponding pIC50.
# TARGET ENTITY: human SPNS2 (Homo sapiens, UniProt Q8IVW8)
# Construct: expressed in transfected cells; host or cells: Saccharomyces cerevisiae strain with forced expression of a mammalian SphK and human SPNS2
# EXPERIMENTAL PROTOCOL: S1P transporter assay: growth of S. cerevisiae strain with forced expression of a mammalian SphK and human SPNS2
# Format: cell-based
# REPORTED CONDITIONS: in vitro inhibition of SPNS2; growth of S. cerevisiae strain expressing mammalian SphK and human SPNS2; compounds as their pharmaceutical salts
pIC50: −log10 of the molar value. Counter-ions that a name gives are not always drawn.

Worked cases, answers included:
C/C(=N\OCc1ccc(-c2ccccc2)cc1)c1ccc(-c2noc([C@@H]3CCNC3)n2)cc1 [Compound 38d, hydrochloride]: < 5.70
CCCCNC(=O)c1ccc(-c2noc([C@@H]3CCNC3)n2)cc1 [Compound 38o, hydrochloride]: < 5.70
CCCCCCCCOc1ccc(-c2noc([C@@H]3CCCNC3)n2)cc1C(F)(F)F [Compound 21d, hydrochloride]: < 5.70
CCCCCCCCCCc1ccc(-c2noc(CC3CN(C(=N)N)C3)n2)cc1: ≥ 5.70
N=C(N)N1CC[C@@H](c2nc(-c3ccc(N4CCOCC4)nc3)no2)C1 [Compound 15d, hydrochloride]: < 5.70

// for each compound below, give its pIC50
1. CCCCCCCCCCc1ccc(-c2noc(C[C@@H]3CCCNC3)n2)cc1 [Compound 5q, 2,2,2-trifluoroacetate]
2. CCCCCCCCCCCc1ccc(-c2noc(C3CNC3)n2)cc1 [Compound 5a, 2,2,2-trifluoroacetate]

1: ≥ 5.70; 2: < 5.70

List pIC50 for every entry below, keeping the order given.
1. CCCCCCCCCCc1ccc(-c2noc([C@H]3CCCN(C(=N)N)C3)n2)cc1
2. CCCCCCCCCCc1ccc(-c2noc([C@@H]3CCCNC3)n2)cc1C(F)(F)F [Compound 28e, hydrochloride]
3. CCCCCCCCCCc1ccc(Nc2ccc(-c3noc([C@@H]4CCN(C(=N)N)C4)n3)cn2)cc1 [Compound 15h, hydrochloride]
4. CCCCCCCCNC(=O)c1ccc(-c2noc([C@@H]3CCNC3)n2)cc1 [Compound 38p, hydrochloride]
5. C/C(=N\OCc1ccc(Br)cc1)c1ccc(-c2noc([C@@H]3CCNC3)n2)cc1 [Compound 38n, hydrochloride]
6. c1ccc(CCCOc2ccc(-c3noc(C4CNC4)n3)cc2)cc1 [Compound 13j, hydrochloride]

1: ≥ 5.70; 2: < 5.70; 3: ≥ 5.70; 4: < 5.70; 5: ≥ 5.70; 6: < 5.70

Batch request: pIC50 for each of the following compounds.
1. CCCCCCCO/N=C(\C)c1ccc(-c2noc([C@@H]3CCNC3)n2)cc1 [Compound 38i, hydrochloride]
2. C/C(=N\OCc1cccc(-c2ccccc2)c1)c1ccc(-c2noc([C@@H]3CCN(C(=N)N)C3)n2)cc1 [Compound 40e, hydrochloride]

< 5.70
≥ 5.70
